Tested target: JAK1 (Homo sapiens)
Construct: 5 μl of catalytic domain recombinant Kinase enzyme+Tyr peptide substrate (Invitrogen, CA)
Sequence (P23458 875-1153 limits assumed): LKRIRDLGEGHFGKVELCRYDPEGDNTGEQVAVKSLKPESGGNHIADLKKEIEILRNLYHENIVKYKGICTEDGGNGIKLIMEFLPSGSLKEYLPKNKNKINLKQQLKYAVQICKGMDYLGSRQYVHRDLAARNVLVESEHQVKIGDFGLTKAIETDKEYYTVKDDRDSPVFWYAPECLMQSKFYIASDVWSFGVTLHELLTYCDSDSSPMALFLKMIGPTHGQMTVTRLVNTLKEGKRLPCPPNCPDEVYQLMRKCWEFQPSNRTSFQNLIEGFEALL
Protocol text: Z'-LYTE kinase assay JAK1
pIC50: −log10 of the molar value.
Endpoint name: pIC50

Given item `NC(=O)c1cnc(Nc2ccc(OCC(=O)N3CCOCC3)cc2)cc1NC1(c2ccccc2)CC1` , the value recorded as its pIC50 is < 6.00

Reported pIC50 ( `CCC(=O)N1CCC(c2ccc(Nc3cc(NC4(c5ccccc5)CC4)c(C(N)=O)cn3)cc2)CC1` ) = < 6.00

Value of measured pIC50 for the entry `CNC(=O)[C@@H]1CCCN(c2ccc(Nc3cc(NCc4ccccc4)c(C(N)=O)cn3)cc2)C1` : 6.00 to 7.00

Record `COCC(=O)N1CCC[C@@H](CNc2cc(Nc3ccc(OC)cc3)ncc2C(N)=O)C1` . Reported pIC50: < 6.00

Kindly note the recorded pIC50 for `NC(=O)c1cnc(Nc2cccc(C3CCOCC3)c2)cc1NCc1cccc(F)c1F` , which is 6.00 to 7.00

// pIC50 lookup, compound = `NC(=O)c1cnc(Nc2cccc(C(=O)N3CCCCC3)c2)cc1NCc1ccccc1` , result: 6.00 to 7.00

`Cc1cc(Nc2cc(NCc3ccccc3)c(C(N)=O)cn2)ccc1C(=O)N1CCCC1` has a reported pIC50 of 6.00 to 7.00

So for `CS(=O)(=O)Cc1ccc(Nc2cc(NCc3cccc(-c4ccncc4)c3)c(C(N)=O)cn2)cc1` , the logged pIC50 turned out to be 6.00 to 7.00

###

Tested target: JAK2 (Homo sapiens, UniProt O60674)
Construct: 5 μl of catalytic domain recombinant Kinase enzyme+Tyr peptide substrate (Invitrogen, CA)
Sequence (O60674 849-1124 limits assumed): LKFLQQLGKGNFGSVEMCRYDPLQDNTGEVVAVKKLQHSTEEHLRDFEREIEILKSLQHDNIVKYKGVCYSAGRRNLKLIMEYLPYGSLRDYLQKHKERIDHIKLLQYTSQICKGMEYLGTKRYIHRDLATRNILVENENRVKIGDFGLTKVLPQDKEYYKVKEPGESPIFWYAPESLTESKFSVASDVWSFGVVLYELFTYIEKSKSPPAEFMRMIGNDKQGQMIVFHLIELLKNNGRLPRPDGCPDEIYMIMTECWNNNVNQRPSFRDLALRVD
Protocol text: Z'-LYTE kinase assay JAK2
pIC50: −log10 of the molar value.
The entries below come with measured pIC50 values attached.

Please review the following examples before continuing.
>  <Compound>
NC(=O)c1cnc(Nc2ccc(C3CCOCC3)cc2)cc1NC1CCCC1 [Example 150]

>  <pIC50>
6.00 to 7.00

$$$$
>  <Compound>
CC(=O)N1CCN(c2ccc(Nc3cc(NCC4CCCC4)c(C(N)=O)cn3)cc2)CC1 [Example 245]

>  <pIC50>
7.00 to 8.00

$$$$
>  <Compound>
COc1ccc(Nc2cc(NC[C@H]3CCCN(C(=O)N(C)C)C3)c(C(N)=O)cn2)cc1 [Example 291]

>  <pIC50>
< 6.00

$$$$
>  <Compound>
N#CCOc1cccc(Nc2cc(NCc3ccccc3)c(C(N)=O)cn2)c1 [Example 383]

>  <pIC50>
6.00 to 7.00

$$$$
>  <Compound>
NC(=O)c1cnc(Nc2ccc(C3CCOCC3)cc2)cc1NCC1CCOCC1 [Example 140]

>  <pIC50>
6.00 to 7.00

$$$$
>  <Compound>
Cc1cc(Nc2cc(NCc3cccc(F)c3F)c(C(N)=O)cn2)ccc1C(=O)N1CCCC1 [Example 456]

>  <pIC50>
7.00 to 8.00

$$$$
>  <Compound>
CC(=O)Nc1cccc(Nc2nc(N)c(C(N)=O)cc2F)c1 [Example 21]

>  <pIC50>
< 6.00

$$$$
>  <Compound>
NC(=O)c1cc(F)c(Nc2ccc(OCCN3CCCC3)cc2)nc1NCc1ccccc1 [Example 26]

>  <pIC50>
< 6.00

$$$$
>  <Compound>
CCC(=O)N1CC(c2ccc(Nc3cc(NCc4ccccc4)c(C(N)=O)cn3)cc2)C1 [Example 326]

>  <pIC50>
6.00 to 7.00

$$$$
>  <Compound>
COCC(=O)N1CCC[C@H](CNc2cc(Nc3ccc(C(=O)N4CCCC4)cc3)ncc2C(N)=O)C1 [Example 267]

>  <pIC50>
6.00 to 7.00

$$$$

Entry NC(=O)c1cnc(Nc2ccccc2)cc1NCc1ccccc1 [Example 9] ; pIC50 = < 6.00

Record NC(=O)c1cnc(Nc2cccc(C3CCN(C4CCCC4)CC3)c2)cc1NCc1ccccc1F [Example 110] , field pIC50: 7.00 to 8.00

Value of measured pIC50 for the entry CN(C)C(=O)N1CCC(c2ccc(Nc3cc(NCc4ccccc4F)c(C(N)=O)cn3)cc2)CC1 [Example 114] : 6.00 to 7.00

So for NC(=O)c1cnc(Nc2cccc(C3CCNCC3)c2)cc1NCc1ccccc1F [Example 120] , the logged pIC50 turned out to be 7.00 to 8.00

Entry NC(=O)c1cnc(Nc2ccc(N3CCCCC3)cc2)cc1NCc1ccccc1F [Example 74] — recorded pIC50 = 6.00 to 7.00

# pIC50 (compound: NC(=O)c1cnc(Nc2cccc(C3CCOCC3)c2)cc1NCc1cccc(F)c1 [Example 204] ) is 7.00 to 8.00

Measured pIC50 of COc1ccc(Nc2cc(Nc3ccc(OC)cc3)c(C(N)=O)cn2)cc1 [Example 34] : < 6.00

pIC50 recorded for this compound, CN(C)S(=O)(=O)Cc1ccc(Nc2cc(NCc3cccc(-c4ccncc4)c3)c(C(N)=O)cn2)cc1 [Example 417] , is 6.00 to 7.00

pIC50 for CC(=O)N1CC(c2ccc(Nc3cc(NCc4cncc(F)c4)c(C(N)=O)cn3)cc2)C1 [Example 334] is 6.00 to 7.00

Where do these numbers come from? They come from patent US20150353495A1.
